- Method: probe aCHRDL2 binding to arrayed compounds – biochemical, biotinylated probe, 635/667 nm fluorescence, primary screen (AID 1100)
- Particulars: small-molecule microarray, higher = more signal
Task for the reader: assign each of the following molecules its reported composite z-score.

Need composite z-score, item "CCCC=C(CCC)[C@@H](NC(=O)Cc1ccccc1)c1ccc(C(=O)OC)cc1"
1.17

Need composite z-score, item "COC(=O)[C@]1(Cc2ccccc2CN=[N+]=[N-])N=C(c2ccc(OCCCO)cc2)O[C@@H]1c1ccccc1"
0.987

Need composite z-score, item "COc1ccc([Si](C)(C)[C@@H]2[C@@H](CCO)O[C@]3(C(=O)N(Cc4ccccc4)c4ccc(N5C(=O)COc6ccccc65)cc43)[C@H]2C)cc1"
0.0637

Need composite z-score, item N#Cc1ccc(NN2C(C(O)c3ccco3)C=CC3C(=O)N(c4ccccc4)C(=O)C32)cc1 (stereo not drawn)
0.843

Need composite z-score, item "[N-]=[N+]=NCc1ccccc1[C@H]1OC(c2ccc(OCCCO)cc2)=N[C@@]1(Cc1ccccc1N=[N+]=[N-])C(=O)N1CCCCC1"
1.06

For every listed record, write down its composite z-score.
1. CC(C)N1CC=CC23O[C@@H]4C=CCOC(=O)[C@@H]4[C@H]2C(=O)N(CCCCCCO)[C@@H]3C1=O (stereo partly drawn)
2. C/C=C/[C@@H](CCn1cc([C@H](O)c2ccccc2)nn1)[Si](C)(C)c1ccc(OC)cc1
3. COCCCNC(=O)[C@@]1(C)c2ccccc2C(=O)N(c2ccc(C)cn2)[C@H]1c1ccc(CO)cc1

0.143
0.476
-0.75

----------
- Target or system: Concanavalin-A (Canavalia ensiformis)
- Method: compounds binding concanavalin A lectin – biochemical, small-molecule microarray, Alexa647 label, 635 nm, artefact control for SMM control protein annotation, primary screen (AID 1127);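 also: z combines 667 nm emission intensity with signal-to-noise across three replicate slides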
- Particulars: ConA-A647 binding fluorescence, higher = more signal
Endpoint name: composite z-score
One number for each entry.

For every listed record, write down its composite z-score.
1. O=C1N(CCS(=O)(=O)c2ccccc2)c2ccccc2[C@H]2OC(c3ccc(OCCCO)cc3)=N[C@@]12CCS(=O)(=O)c1ccccc1
2. CN(C)C(=O)[C@@]1(Cc2ccccc2N=[N+]=[N-])N=C(c2ccc(OCCCO)cc2)O[C@H]1c1ccccc1N=[N+]=[N-]
3. CCC[C@@H]1C[C@@]1(CCC)[C@@H](NC(=O)c1ccco1)c1ccc(Cl)cc1
4. O=C1c2ccccc2C(=O)C2CC([C@H]3Oc4ccccc4S(=O)(=O)N4CCC[C@@H]34)=CCC12 (some centres undefined)

1. 1.16
2. 0.819
3. -0.517
4. -1

----------
- Method: S6 kinase pathway phospho-S6 level changes – cell-based, A549, cytoblot, luminescence, serum-stimulated, primary screen (AID 1158);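 also: serum-stimulated A549 lung adenocarcinoma cells; signal is phosphorylated S6 detected by cytoblot immunostaining with HRP secondary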
- Particulars: 5 h, higher = more signal
Endpoint name: z-score
Give bare numbers.

Reference set (5 entries):
Need z-score, item "COCCOC(=O)N1C(=O)[C@@]2(c3cc(C#CCNC(N)=O)ccc31)[C@H](c1ccc(OCCO)cc1)N1[C@H](c3ccccc3)[C@H](c3ccccc3)OC(=O)[C@H]1[C@@H]2C(=O)N1CCN(c2ncccn2)CC1"
0.537

Need z-score, item "COC(=O)C(CC#Cc1ccc2c(c1)[C@]1(C(=O)N2)[C@H](c2ccc(O)cc2)N2[C@H](c3ccccc3)[C@H](c3ccccc3)OC(=O)[C@H]2[C@@H]1C(N)=O)C(=O)OC"
1.39

Need z-score, item C[C@H]1NC(=O)C([C@@H](C)OCc2ccccc2)NC(=O)[C@@]23C(=O)N[C@@H](Cc4ccccc4)C2[C@H](C)[C@@]2(C)O[C@H]2C3/C=C/CC/C=C/CNC1=O (stereo partly specified)
0.888

Need z-score, item "COCCCNC(=O)[C@@]1(Cc2ccccc2)COC(c2ccc(OCCCO)cc2)=N1"
-0.194

Need z-score, item "C=CCNC(=O)[C@@H]1[C@H]2C(=O)O[C@H](c3ccccc3)[C@H](c3ccccc3)N2[C@H](c2ccc(O)cc2)[C@@]12C(=O)Nc1ccc(C#CCCO)cc12"
0.727

Next:
Need z-score, item "COCC(=C=CC[C@@H](O)c1ccccc1OCCO)C[C@@H](O)COCc1ccccc1"
0.719

----------
- Method: binders of probe aHhip on microarray, primary screen, stem cell growth factor project, biochemical, small-molecule microarray, fluorescence 635/667 (AID 1087);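 also: score merges spot fluorescence at 667nm with spot signal to noise ratio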
- Particulars: higher = more signal
Endpoint name: composite z-score
Answers are plain numbers.

Need composite z-score, item "C=C(/C(=C/C[C@@H](OC(C)=O)c1ccccc1OCCO)c1cnc2ccccc2c1)C(C)C"
-0.344

For every listed record, write down its composite z-score.
1. CC1C=C(CCCO)C=C(C(=O)OCCS(C)(=O)=O)C(C(=O)OCCS(C)(=O)=O)=CN1Cc1cccc(OC(F)(F)F)c1 (stereo not drawn)
2. O=C(NCc1ccccc1)[C@]1(Cc2ccccc2)N=C(c2ccc(OCCCO)cc2)O[C@@H]1c1ccccc1

[-0.0645, 0.0024]

For every listed record, write down its composite z-score.
1. CC(C)c1ccc(NN2C(C(O)c3ccccn3)C=CC3C(=O)N(c4ccccc4)C(=O)C32)cc1 (stereo not drawn)
2. CC(=O)NCCCC[C@@H]1NC(=O)[C@@H]2C[C@H](C(=O)NCCCC[N+](C)(C)C)[C@H](c3cccc(OCCO)c3)N2C1=O
3. COCCOC(=O)N1C(=O)[C@@]2(c3cc(C#CC4(O)CCCCCC4)ccc31)[C@H](C(=O)N1CCN(c3ncccn3)CC1)[C@H]1C(=O)O[C@H](c3ccccc3)[C@H](c3ccccc3)N1[C@@H]2c1ccc(O)cc1
4. CO[C@H]1O[C@H](CO)[C@@H](OC(=O)c2ccc(Br)cc2)[C@@H]2OC(=O)[C@H](Cc3cccc(Br)c3)C/C=C/C[C@@H](Cc3cccc(Br)c3)C(=O)O[C@@H]12
5. COC(=O)[C@@]1(Cc2ccc(F)cc2)[C@H]2c3cc(C(=O)N4CCCC4)n(Cc4ccccc4)c3C[C@H]2CN1C(=O)c1ccccc1

1. 0.347
2. -0.0645
3. -0.0618
4. 0.319
5. 0.0578

For every listed record, write down its composite z-score.
1. CCCC=C(CCC)[C@@H](NS(=O)(=O)c1ccccc1)c1ccc(C(F)(F)F)cc1
2. O=C1CSC(c2cccc([N+](=O)[O-])c2)N1c1ccccc1 (stereo not drawn)
3. CCCCC(=C=CC[C@H](O)c1ccccc1OCCO)C[C@H](O)c1ccccn1
4. C=C(C)[C@@H]1CC=C(C(O)C2C=CC3C(=O)N(C4CCCCC4)C(=O)C3N2Nc2ccc(OC)cc2)CC1 (stereo partly drawn)
5. CC(C)(C)OC(=O)CC[C@]1(C(=O)N2CCCCC2)N=C(c2ccc(OCCCO)cc2)O[C@H]1c1ccccc1CN=[N+]=[N-]
6. O=c1c2ccc(Br)cc2nc(-c2ccccc2)n1Cc1cccc(O)c1
7. COc1ccc([Si](C)(C)[C@@H]2[C@@H](CCO)O[C@]3(C(=O)N(Cc4cccc(N5C(=O)COc6ccccc65)c4)c4ccccc43)[C@H]2C)cc1
8. COC(=O)[C@@]1(Cc2ccccc2N=[N+]=[N-])N=C(c2ccc(OCCCO)cc2)O[C@H]1c1ccccc1

0.28
-0.0994
-0.456
-0.41
-0.574
-0.181
-0.164
-0.0994

----------
Task for the reader: assign each of the following compounds its reported z-score.
- Method: JC-1 mitochondrial potential readout, lung cancer cells – cell-based, A549, JC-1 fluorescence, basal, 24 h, 100 nL, profiling panel (AID 1138);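 also: A549 lung adenocarcinoma cells under basal conditions with no added stimulus; test concentration not given here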
- Particulars: higher = more signal
Give bare numbers.

Reference set (3 entries):
Need z-score, item "O=C(NCc1ccccc1)[C@]1(Cc2ccccc2)N=C(c2ccc(OCCCO)cc2)O[C@@H]1c1ccccc1"
2

Need z-score, item CC(C)CCC[C@@H](C)[C@H]1CC[C@@]2(C)C3=C(CC[C@]12C)[C@@]1(C)CC[C@H](OC(=O)c2ccc(N)cc2)C(C)(C)C1CC3 (some centres undefined)
1.32

Need z-score, item "COC(=O)[C@@]1(Cc2ccccc2)[C@H]2c3cc(C(=O)N(C)C)n(Cc4ccccn4)c3C[C@H]2CN1C(=O)c1ccccc1"
-0.128

Next:
Need z-score, item "C=CC[C@]1(C(=O)N2CCOCC2)N=C(c2ccc(OCCCO)cc2)O[C@H]1c1ccccc1CN=[N+]=[N-]"
1.64

----------
- Method: viability profiling in MM1S myeloma cells – cell-based, resazurin fluorescence, basal, 24 h, PK04 Diversity Set, profiling panel (AID 1174);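 also: MM1S multiple myeloma cell line; test concentration not given here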
- Particulars: higher = more signal, called active from +8 up or from −8 down
Assign Criterion met whenever z-score does not fall below 0.2; assign Criterion not met whenever it does.

Examples with answers:
# check: z-score of "C[N+](C)(C)CCCCNC(=O)[C@H]1C[C@H]2C(=O)NCC(=O)N2[C@H]1c1ccc(O)cc1" is greater than or equal to 0.2
Criterion not met

# check: z-score of "CC(C)CNC(=O)[C@@]1(c2ccc([N+](=O)[O-])cc2)CC(=O)N(C(C)C)[C@@H]1c1ccc(CO)cc1" is greater than or equal to 0.2
Criterion met

# check: z-score of "COC(=O)[C@]1(Cc2ccccc2CN=[N+]=[N-])N=C(c2ccc(OCCCO)cc2)O[C@@H]1c1ccccc1CN=[N+]=[N-]" is greater than or equal to 0.2
Criterion not met

# check: z-score of CCCCCCCCCCC(O)C1C=CC2C(=O)NC(=O)C2N1Nc1ccccn1 (stereo not given) is greater than or equal to 0.2
Criterion not met

# check: z-score of O=C1OCCC=C[C@H]2OC34C=CCN(Cn5nnc6ccccc65)C(=O)[C@H]3N(CCCCCO)C(=O)[C@@H]4C12 (stereo not given in full) is greater than or equal to 0.2
Criterion met

Next:
# check: z-score of CC(C)C[C@@H]1NC(=O)[C@@]23C(=O)N[C@@H](Cc4ccccc4)C2[C@H](C)[C@@]2(C)O[C@H]2C3/C=C/C/C=C\CNC(=O)[C@@H]2CCCN2C1=O (stereo not given in full) is greater than or equal to 0.2
Criterion not met

# check: z-score of "CCCC=C(CCC)[C@@H](NC(=O)Cc1ccccc1)c1ccc(C(=O)OC)cc1" is greater than or equal to 0.2
Criterion not met

# check: z-score of "COC(=O)[C@]1(Cc2ccccc2N=[N+]=[N-])N=C(c2ccc(OCCCO)cc2)O[C@@H]1c1ccccc1" is greater than or equal to 0.2
Criterion not met
